Reported activity coefficient by item:
# testSummary: activity coefficient (dimensionless); of the first substance listed, at infinite dilution; xn = mol fraction of the nth substance listed
# conditionNotes: 338.15 K; 100 kPa; Liquid; Chromatography; x1 = 0
Just the number.

Query: # lookup: activity coefficient of CCC[N+](=O)[O-] [1-nitropropane] + CCCC[n+]1ccc(C#N)cc1.O=S(=O)([N-]S(=O)(=O)C(F)(F)F)C(F)(F)F
Result: 0.824

----------
# testSummary: activity coefficient (dimensionless); of the first substance listed, at infinite dilution; xn = mol fraction of the nth substance listed
# conditionNotes: 308.15 K; 100 kPa; Liquid; Chromatography; x1 = 0
I'd appreciate it if you marked entries YES when activity coefficient is lower than 2 and NO when it is not.

Reference set, count: 5
CCO [ethanol] + CCCC[n+]1ccc(C#N)cc1.O=S(=O)([N-]S(=O)(=O)C(F)(F)F)C(F)(F)F
YES
C=Cc1ccccc1 [styrene] + CCCC[n+]1ccc(C#N)cc1.O=S(=O)([N-]S(=O)(=O)C(F)(F)F)C(F)(F)F
YES
CCCC(=O)OC [methyl butanoate] + CCCC[n+]1ccc(C#N)cc1.O=S(=O)([N-]S(=O)(=O)C(F)(F)F)C(F)(F)F
YES
C1CCCCC1 [cyclohexane] + CCCC[n+]1ccc(C#N)cc1.O=S(=O)([N-]S(=O)(=O)C(F)(F)F)C(F)(F)F
NO
COC(C)=O [methyl ethanoate] + CCCC[n+]1ccc(C#N)cc1.O=S(=O)([N-]S(=O)(=O)C(F)(F)F)C(F)(F)F
YES

Query: Please check: activity coefficient for CC(C)CO [2-methyl-1-propanol] + CCCC[n+]1ccc(C#N)cc1.O=S(=O)([N-]S(=O)(=O)C(F)(F)F)C(F)(F)F , strictly under 2 or not?
Result: NO

Query: # TODO verify activity coefficient < 2 strictly for this compound: CCCCCCCCCC [decane] + CCCC[n+]1ccc(C#N)cc1.O=S(=O)([N-]S(=O)(=O)C(F)(F)F)C(F)(F)F
Result: NO

----------
# testSummary: activity coefficient (dimensionless); of the first substance listed, at infinite dilution; xn = mol fraction of the nth substance listed
# conditionNotes: 368.15 K; 100 kPa; Liquid; Chromatography; x1 = 0
Rule: activity coefficient below 9 gives Criterion met, anything at or above gives Criterion not met.

Here's what some known entries look like.
O [water] + CCCC[n+]1ccc(C#N)cc1.O=S(=O)([N-]S(=O)(=O)C(F)(F)F)C(F)(F)F
Criterion met
CC(C)(C)O [2-methylpropan-2-ol] + CCCC[n+]1ccc(C#N)cc1.O=S(=O)([N-]S(=O)(=O)C(F)(F)F)C(F)(F)F
Criterion met
CCOCC [diethyl ether] + CCCC[n+]1ccc(C#N)cc1.O=S(=O)([N-]S(=O)(=O)C(F)(F)F)C(F)(F)F
Criterion met
c1ccncc1 [pyridine] + CCCC[n+]1ccc(C#N)cc1.O=S(=O)([N-]S(=O)(=O)C(F)(F)F)C(F)(F)F
Criterion met
CCCCCC [hexane] + CCCC[n+]1ccc(C#N)cc1.O=S(=O)([N-]S(=O)(=O)C(F)(F)F)C(F)(F)F
Criterion not met
CCCOCCC [dipropyl ether] + CCCC[n+]1ccc(C#N)cc1.O=S(=O)([N-]S(=O)(=O)C(F)(F)F)C(F)(F)F
Criterion met

Moving on to another compound below.
Query: Determine whether this compound shows activity coefficient lower than 9 (ties excluded): C1CCCCC1 [cyclohexane] + CCCC[n+]1ccc(C#N)cc1.O=S(=O)([N-]S(=O)(=O)C(F)(F)F)C(F)(F)F
Result: Criterion not met

----------
# testSummary: activity coefficient (dimensionless); of the first substance listed, at infinite dilution; xn = mol fraction of the nth substance listed
# conditionNotes: 328.15 K; 100 kPa; Liquid; Chromatography; x1 = 0
Mark criterion met for reported activity coefficient of 4 or greater; mark criterion not met for anything smaller.

C=CCCCCC [1-heptene] + CCCC[n+]1ccc(C#N)cc1.O=S(=O)([N-]S(=O)(=O)C(F)(F)F)C(F)(F)F
criterion met

Query: Evaluate Cc1ccccc1 [toluene] + CCCC[n+]1ccc(C#N)cc1.O=S(=O)([N-]S(=O)(=O)C(F)(F)F)C(F)(F)F : activity coefficient at minimum 4?
Result: criterion not met

----------
# testSummary: activity coefficient (dimensionless); of the first substance listed, at infinite dilution; xn = mol fraction of the nth substance listed
# conditionNotes: 368.15 K; 100 kPa; Liquid; Chromatography; x1 = 0
Below is a list of entries, each paired with its recorded activity coefficient value.

Answered cases to consult:
C=CCCC [1-pentene] + CCCC[n+]1ccc(C#N)cc1.O=S(=O)([N-]S(=O)(=O)C(F)(F)F)C(F)(F)F
8.65
CCCCCCC [heptane] + CCCC[n+]1ccc(C#N)cc1.O=S(=O)([N-]S(=O)(=O)C(F)(F)F)C(F)(F)F
31.7
C#CCCCCCC [1-octyne] + CCCC[n+]1ccc(C#N)cc1.O=S(=O)([N-]S(=O)(=O)C(F)(F)F)C(F)(F)F
10.5
CC(C)CO [2-methyl-1-propanol] + CCCC[n+]1ccc(C#N)cc1.O=S(=O)([N-]S(=O)(=O)C(F)(F)F)C(F)(F)F
2.04
CCC(=O)OC [methyl propanoate] + CCCC[n+]1ccc(C#N)cc1.O=S(=O)([N-]S(=O)(=O)C(F)(F)F)C(F)(F)F
1.11
C=Cc1ccccc1 [styrene] + CCCC[n+]1ccc(C#N)cc1.O=S(=O)([N-]S(=O)(=O)C(F)(F)F)C(F)(F)F
1.75
Cc1ccccc1C [1,2-dimethylbenzene] + CCCC[n+]1ccc(C#N)cc1.O=S(=O)([N-]S(=O)(=O)C(F)(F)F)C(F)(F)F
2.39
C1=CCCCC1 [cyclohexene] + CCCC[n+]1ccc(C#N)cc1.O=S(=O)([N-]S(=O)(=O)C(F)(F)F)C(F)(F)F
6.9

Query: For C#CCCCC [1-hexyne] + CCCC[n+]1ccc(C#N)cc1.O=S(=O)([N-]S(=O)(=O)C(F)(F)F)C(F)(F)F , what is its reported activity coefficient?
Result: 5.36

----------
# testSummary: activity coefficient (dimensionless); of the first substance listed, at infinite dilution; xn = mol fraction of the nth substance listed
# conditionNotes: 308.15 K; 100 kPa; Liquid; Chromatography; x1 = 0
Reported activity coefficient values are given for each entry in this list.

CCCC=O [butanal] + CCCC[n+]1ccc(C#N)cc1.O=S(=O)([N-]S(=O)(=O)C(F)(F)F)C(F)(F)F
0.7
C1COCCO1 [1,4-dioxane] + CCCC[n+]1ccc(C#N)cc1.O=S(=O)([N-]S(=O)(=O)C(F)(F)F)C(F)(F)F
0.419
C=CCCCC [hex-1-ene] + CCCC[n+]1ccc(C#N)cc1.O=S(=O)([N-]S(=O)(=O)C(F)(F)F)C(F)(F)F
14.1

--- query ---
Query: Need activity coefficient, item CCCc1ccccc1 [propylbenzene] + CCCC[n+]1ccc(C#N)cc1.O=S(=O)([N-]S(=O)(=O)C(F)(F)F)C(F)(F)F
Result: 3.8

----------
# testSummary: activity coefficient (dimensionless); of the first substance listed, at infinite dilution; xn = mol fraction of the nth substance listed
# conditionNotes: 358.15 K; 100 kPa; Liquid; Chromatography; x1 = 0
readout: activity coefficient

// known answers, use as guide
C1CCCCCC1 [cycloheptane] + CCCC[n+]1ccc(C#N)cc1.O=S(=O)([N-]S(=O)(=O)C(F)(F)F)C(F)(F)F
15.6
Cc1ccccc1 [toluene] + CCCC[n+]1ccc(C#N)cc1.O=S(=O)([N-]S(=O)(=O)C(F)(F)F)C(F)(F)F
1.86
C1CCOC1 [tetrahydrofuran] + CCCC[n+]1ccc(C#N)cc1.O=S(=O)([N-]S(=O)(=O)C(F)(F)F)C(F)(F)F
0.818
CC(C)(C)O [2-methylpropan-2-ol] + CCCC[n+]1ccc(C#N)cc1.O=S(=O)([N-]S(=O)(=O)C(F)(F)F)C(F)(F)F
1.71
C=CCCC [1-pentene] + CCCC[n+]1ccc(C#N)cc1.O=S(=O)([N-]S(=O)(=O)C(F)(F)F)C(F)(F)F
9.02
CCOC(C)=O [ethyl acetate] + CCCC[n+]1ccc(C#N)cc1.O=S(=O)([N-]S(=O)(=O)C(F)(F)F)C(F)(F)F
1.1
C1=CCCCC1 [cyclohexene] + CCCC[n+]1ccc(C#N)cc1.O=S(=O)([N-]S(=O)(=O)C(F)(F)F)C(F)(F)F
7.1
C=Cc1ccccc1 [styrene] + CCCC[n+]1ccc(C#N)cc1.O=S(=O)([N-]S(=O)(=O)C(F)(F)F)C(F)(F)F
1.67

Query: Need activity coefficient, item CCCCCCCCC [nonane] + CCCC[n+]1ccc(C#N)cc1.O=S(=O)([N-]S(=O)(=O)C(F)(F)F)C(F)(F)F
Result: 65.3

Query: # query: activity coefficient of entry C#CCCCCC [1-heptyne] + CCCC[n+]1ccc(C#N)cc1.O=S(=O)([N-]S(=O)(=O)C(F)(F)F)C(F)(F)F
Result: 7.39
